Target: human plasma kallikrein (Homo sapiens (Human), UniProt P03952)
Sequence (P03952 391-638): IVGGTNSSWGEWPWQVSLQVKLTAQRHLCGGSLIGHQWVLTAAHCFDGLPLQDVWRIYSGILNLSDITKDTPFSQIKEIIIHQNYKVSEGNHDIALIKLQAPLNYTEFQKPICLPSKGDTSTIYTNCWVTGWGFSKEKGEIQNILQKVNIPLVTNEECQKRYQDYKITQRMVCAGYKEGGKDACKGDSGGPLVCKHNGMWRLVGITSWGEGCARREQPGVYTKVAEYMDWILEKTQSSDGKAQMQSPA
Sequence (P03952 20-390 partner): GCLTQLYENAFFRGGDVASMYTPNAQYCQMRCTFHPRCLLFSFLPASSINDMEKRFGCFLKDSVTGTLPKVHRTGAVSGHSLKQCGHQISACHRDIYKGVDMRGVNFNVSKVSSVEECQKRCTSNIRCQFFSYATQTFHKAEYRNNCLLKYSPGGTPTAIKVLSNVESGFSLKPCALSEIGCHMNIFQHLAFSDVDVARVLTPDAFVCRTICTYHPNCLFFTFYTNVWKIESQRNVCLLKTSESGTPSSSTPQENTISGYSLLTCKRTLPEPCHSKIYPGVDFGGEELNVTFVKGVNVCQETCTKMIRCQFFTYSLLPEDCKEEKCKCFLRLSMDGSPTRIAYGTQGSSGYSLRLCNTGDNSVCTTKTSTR
Test: Kallikrein inhibition assay (FLINT) utilizing a quenched AMC peptide substrate
Format: biochemical
Conditions: 30 min preincubation, kinetic reads over 30 min, Z-Gly-Pro-Arg-AMC substrate 50 μM; read-out: Kallikrein Kin Inh IC50
assay readout: IC50 (nM)

Known results for molecules:
[2H]c1nc([C@@H]2CC[C@]3([2H])CC(c4c(-n5cnnn5)ccc(Cl)c4F)=CC(=O)N23)[nH]c1-c1c(F)nc(N)c([2H])c1[2H] (single isomer, unassigned) [Example 132] = 6.8
O=C(NC12CC(C1)C2)c1nccc(-c2cnc([C@@H]3CC[C@@H]4CC(c5c(-n6cnnn6)ccc(Cl)c5F)=CC(=O)N43)[nH]2)c1F [Example 104] = 35.4
CNc1ncccc1-c1cnc([C@@H]2CCC3CC(c4c(-n5cnnn5)ccc(Cl)c4F)=CC(=O)N32)[nH]1 (some centres unmarked) [Example 260] = 462
O=C1C=C(c2c(-n3cnnn3)ccc(Cl)c2F)C[C@H]2CC[C@H](c3ncc(-c4c[nH]c5ccccc45)[nH]3)N12 (relative stereo) [Example 137] = 7.7
NC(=O)c1cc(-c2cnc([C@@H]3CC[C@@H]4CC(c5c(-n6cc(C(F)(F)F)nn6)ccc(Cl)c5F)=CC(=O)N43)[nH]2)ccn1 [Example 204] = 24.5

a = CC(=O)N[C@H](C)c1ccc(-c2[nH]c([C@@H]3CCC4CC(c5c(-n6cnnn6)ccc(Cl)c5F)=CC(=O)N43)nc2F)cc1 (some centres unmarked) [Example 11]
b = Nc1nccc(-c2cnc([C@@H]3CC[C@@H]4CC(c5c(-n6cnnn6)ccc(Cl)c5F)=CC(=O)N43)[nH]2)c1Cl [Example 380]
Compare a and b by numeric IC50 and name the larger one. Please respond with the label that marks your chosen entry.
a

The measured values listed here are drawn from patent US20230295157A1.
